test: Drug concentration in plasma of C57BL/6 mouse at 1 mg/kg, ip measured for 4 hrs by LC-MS/MS analysis; format: ADME, organism-based
Recorded Metric: concentration at 4 h
Reply with a number, then the unit it belongs to.

// query concentration at 4 h value for entry `Cc1ccc2c(n1)N(Cc1ccc(C(=O)NO)cc1F)CCC2`
0.21 ng/mL

====

assay: Ratio of drug concentration in brain to plasma of C57BL/6 mouse at 1 mg/kg, ip measured for 1 hr by LC-MS/MS analysis; format: ADME, organism-based; conditions: read-out: BPR
Recorded Metric: Kp at 1 h
// return just the number, without any unit appended

// query Kp at 1 h value for entry `Cc1ccc2c(n1)N(Cc1ccc(C(=O)NO)cc1F)CCC2`
3.9

====

assay: Drug concentration in brain of C57BL/6 mouse at 1 mg/kg, ip measured for 4 hrs by LC-MS/MS analysis; format: ADME, organism-based; conditions: read-out: Ct
Recorded Metric: concentration at 4 h (ng/mL)
Entry rule: numbers only, all in ng/mL.

// query concentration at 4 h value for entry `Cc1ccc2c(n1)N(Cc1ccc(C(=O)NO)cc1F)CCC2`
0.42

====

experiment: Tmax in C57BL/6 mouse at 20 mg/kg, ip by LC-MS/MS analysis; type: ADME, organism-based; conditions: in vivo
Recorded Metric: Tmax (min)
Entry rule: numbers only, all in min.

// query Tmax value for entry `Cc1ccc2c(n1)N(Cc1ccc(C(=O)NO)cc1F)CCC2`
4.98

====

assay: Drug concentration in plasma of C57BL/6 mouse at 1 mg/kg, ip measured for 1 hr by LC-MS/MS analysis; assay type: ADME, organism-based
Recorded Metric: concentration at 1 h (ng/mL)
Entry rule: numbers only, all in ng/mL.

// query concentration at 1 h value for entry `Cc1ccc2c(n1)N(Cc1ccc(C(=O)NO)cc1F)CCC2`
2.6

====

assay: Half life in C57BL/6 mouse at 20 mg/kg, ip by LC-MS/MS analysis; assay type: ADME, organism-based; settings: in vivo
Recorded Metric: half-life (min)
Entry rule: numbers only, all in min.

// query half-life value for entry `Cc1ccc2c(n1)N(Cc1ccc(C(=O)NO)cc1F)CCC2`
54.6

====

assay: Cmax in C57BL/6 mouse at 20 mg/kg, iv by LC-MS/MS analysis; type: ADME, organism-based; details: in vivo
Recorded Metric: Cmax (ng/mL)
Entry rule: numbers only, all in ng/mL.

// query Cmax value for entry `Cc1ccc2c(n1)N(Cc1ccc(C(=O)NO)cc1F)CCC2`
3600

====

assay: Drug concentration in brain of C57BL/6 mouse at 1 mg/kg, ip measured for 0.5 hrs by LC-MS/MS analysis; assay type: ADME, organism-based; details: read-out: Ct
Recorded Metric: concentration at 0.5 h (ng/mL)
Entry rule: numbers only, all in ng/mL.

// query concentration at 0.5 h value for entry `Cc1ccc2c(n1)N(Cc1ccc(C(=O)NO)cc1F)CCC2`
26.5

====

assay: Drug concentration in plasma of C57BL/6 mouse at 1 mg/kg, ip measured for 0.5 hrs by LC-MS/MS analysis; type: ADME, organism-based
Recorded Metric: concentration at 0.5 h (ng/mL)
Entry rule: numbers only, all in ng/mL.

// query concentration at 0.5 h value for entry `Cc1ccc2c(n1)N(Cc1ccc(C(=O)NO)cc1F)CCC2`
3.3
